Ref: PubChem BioAssay (NCATS)

# Tested on: P93_24
# assay comment: qHTS profiling for inhibitors of Plasmodium falciparum proliferation (AID 504749); note: nearly all actives have a fitted effect of over 60% in size
# condition parameters: P. falciparum in erythrocytes, SYBR Green DNA, 72 h; series mostly up to 28.7 µM
Inconclusive results are not listed. The source made the active and inactive calls. Calls come from the whole dose curve; as a rule, active = well fitted inhibition curve with a large enough effect; inconclusive = small, poorly fitted or top-dose-only effect; inactive = flat fitted curve, though single readings scatter.
Assign a class; possible classes are YES for active, NO for inactive

[Q] What is the recorded call for this molecule in the test? CC(C)NCC(O)c1ccc2ccccc2c1 (stereo not drawn)
[A] YES

[Q] Now this one: C#C[C@]1(OC(C)=O)CC[C@H]2[C@@H]3CCC4=C/C(=N/O)CC[C@@H]4[C@H]3CC[C@@]21CC
[A] NO

[Q] Thanks! And Nc1nc(-c2ccccc2)c(Br)c(=O)[nH]1 ?
[A] NO
